Target: wild-type human cardiac sodium channel, hNaV 1.5 (Peak INa) (Homo sapiens, UniProt Q14524)
Sequence (Q14524 whole entry): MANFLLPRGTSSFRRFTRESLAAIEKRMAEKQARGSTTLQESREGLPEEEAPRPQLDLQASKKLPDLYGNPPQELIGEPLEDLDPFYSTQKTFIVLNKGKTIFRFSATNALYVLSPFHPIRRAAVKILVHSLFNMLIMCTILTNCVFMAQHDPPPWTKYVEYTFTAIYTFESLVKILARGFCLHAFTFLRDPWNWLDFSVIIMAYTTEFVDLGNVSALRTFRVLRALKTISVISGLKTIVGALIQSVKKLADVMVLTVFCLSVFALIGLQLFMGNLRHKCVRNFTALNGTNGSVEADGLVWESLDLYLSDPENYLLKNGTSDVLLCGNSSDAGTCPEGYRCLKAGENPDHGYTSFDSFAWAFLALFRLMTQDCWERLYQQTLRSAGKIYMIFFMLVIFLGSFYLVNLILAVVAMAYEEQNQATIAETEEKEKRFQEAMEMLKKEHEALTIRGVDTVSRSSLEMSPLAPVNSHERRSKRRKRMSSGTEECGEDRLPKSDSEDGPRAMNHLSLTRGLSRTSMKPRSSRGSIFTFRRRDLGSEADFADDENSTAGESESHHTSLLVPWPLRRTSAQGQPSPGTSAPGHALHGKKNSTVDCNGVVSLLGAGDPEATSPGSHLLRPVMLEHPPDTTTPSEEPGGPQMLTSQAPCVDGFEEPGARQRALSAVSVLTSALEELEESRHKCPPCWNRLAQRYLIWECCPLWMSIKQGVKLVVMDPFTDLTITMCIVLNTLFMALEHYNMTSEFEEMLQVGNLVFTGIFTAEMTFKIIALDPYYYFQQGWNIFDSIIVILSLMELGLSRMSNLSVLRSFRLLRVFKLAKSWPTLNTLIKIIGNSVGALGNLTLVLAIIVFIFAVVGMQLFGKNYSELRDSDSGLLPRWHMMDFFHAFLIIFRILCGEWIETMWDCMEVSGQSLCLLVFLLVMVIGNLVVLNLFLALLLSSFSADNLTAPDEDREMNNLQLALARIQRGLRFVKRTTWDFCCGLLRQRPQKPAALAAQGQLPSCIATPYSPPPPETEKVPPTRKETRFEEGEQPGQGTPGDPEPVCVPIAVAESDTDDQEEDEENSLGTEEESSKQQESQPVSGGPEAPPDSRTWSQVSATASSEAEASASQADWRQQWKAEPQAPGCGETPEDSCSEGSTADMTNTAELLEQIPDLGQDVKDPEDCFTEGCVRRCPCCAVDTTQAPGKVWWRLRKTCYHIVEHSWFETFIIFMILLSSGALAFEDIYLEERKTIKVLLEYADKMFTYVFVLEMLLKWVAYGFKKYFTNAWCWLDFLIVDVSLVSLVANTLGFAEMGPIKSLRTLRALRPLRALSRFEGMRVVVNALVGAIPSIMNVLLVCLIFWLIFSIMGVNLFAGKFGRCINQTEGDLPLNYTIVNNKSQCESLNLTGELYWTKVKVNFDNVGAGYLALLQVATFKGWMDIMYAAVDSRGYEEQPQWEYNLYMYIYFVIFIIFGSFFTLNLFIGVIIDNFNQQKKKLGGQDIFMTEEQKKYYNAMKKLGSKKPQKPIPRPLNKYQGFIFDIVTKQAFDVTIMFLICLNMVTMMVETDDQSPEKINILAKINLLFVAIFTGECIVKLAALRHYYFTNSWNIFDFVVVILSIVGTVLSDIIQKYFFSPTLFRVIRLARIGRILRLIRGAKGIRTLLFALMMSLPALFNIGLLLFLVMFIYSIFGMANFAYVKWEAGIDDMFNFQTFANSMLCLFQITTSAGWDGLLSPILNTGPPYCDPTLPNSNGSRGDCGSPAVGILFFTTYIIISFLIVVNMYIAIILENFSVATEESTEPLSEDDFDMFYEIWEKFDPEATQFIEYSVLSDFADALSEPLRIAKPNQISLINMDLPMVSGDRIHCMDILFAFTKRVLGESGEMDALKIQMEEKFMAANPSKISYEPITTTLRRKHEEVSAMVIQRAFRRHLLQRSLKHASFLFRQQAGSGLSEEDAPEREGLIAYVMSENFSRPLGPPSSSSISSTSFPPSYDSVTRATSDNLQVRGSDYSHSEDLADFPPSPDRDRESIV
Experiment: Peak INa screening assay (tonic block and use-dependent block)
Type: cell-based
Conditions: % inhibition, use-dependent block of peak INa at 3 uM; 3 Hz, pulse 50; read-out: Nav1.5 Peak UDB 3 Hz 3 uM
outcome_measure: inhibition at 3 µM

                                   compound  result
0  CC(C)Oc1cc(C(F)(F)F)ccc1-c1ccc2c(c1)CN(Cc1ncccn1)C(=O)O2    < 5%
1  O=C1Oc2ccc(-c3ccc(OC(F)(F)F)cc3)cc2CN1Cc1ccccn1    5.1%
2  Cc1csc(CN2Cc3cc(-c4ccc(OC(F)(F)F)cc4)ccc3OC2=O)n1    < 5%
3  CCCOc1cc(C(F)(F)F)ccc1-c1ccc2c(c1)CN(CCc1ncccn1)C(=O)O2    9.6%
4  CC1c2cc(-c3cccc(OC(F)(F)F)c3)ccc2OC(=O)N1Cc1ncccn1 (centres unmarked)   12.1%
5  COc1cc(OC(F)(F)F)ccc1-c1ccc2c(c1)CN(Cc1ccccn1)C(=O)O2    < 5%
6  COc1cc(C(F)(F)F)ccc1-c1ccc2c(c1)CN(Cc1ncc(C)cn1)C(=O)O2    < 5%
7  Cc1cc(OC(F)(F)F)ccc1-c1ccc2c(c1)CN(Cc1ccccn1)C(=O)O2    < 5%
